Target: T1, TIM-3 (T cell immunoglobulin and mucin-domain containing-3) (human, UniProt Q8TDQ0 22-200, limits assumed)
T1 construct: also called TIMD-3; HAVCR2
T1 sequence (looked up): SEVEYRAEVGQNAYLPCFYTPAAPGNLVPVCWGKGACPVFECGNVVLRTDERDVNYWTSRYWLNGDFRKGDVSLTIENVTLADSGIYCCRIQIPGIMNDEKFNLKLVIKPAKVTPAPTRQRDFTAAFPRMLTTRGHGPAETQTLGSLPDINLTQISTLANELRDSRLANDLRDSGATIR
Experiment: ELISA, Fab on TIM-3
OUTCOME MEASURE: EC50 (µg/mL)
Respond with the bare value in µg/mL.

Solved cases (2 shown):
Fab clone 1A11 (Fab, V domains shown, Llama-derived Fab from an immune library; the constant domains of the Fab are not) VH: EVQLVESGGGLVQPGGSLRLSCAASGFTFSSYAMSWVRQAPGKGPEWVSHINSGGGNTKYADSVKGRFTISRDNAKNTLYLQMNTLKPEDTAVYYCAKDVSGGYYGTYALDAWGQGTQVVVSS VL: SYELTQSPSVSVALKQTAKITCGGDNIGSKSAQWYQQKPGQAPVLVIYADSRRPSGIPERFSGSNSGNTATLTISGAQAEDEADYYCQVWDSSAAVFGGGTHLTVL ... 0.01
Fab clone 2A6 (Fab, V domains shown, Llama-derived Fab from an immune library; the constant domains of the Fab are not) VH: QVQLVESGGGLVQPGGSLRLSCAASGFTFSNYWMYWVRQAPGKGLEWVSTINTNGAITLYADNVKDRFTVSRDNAKNTLYLQMNSLKSEDTAVYYCAKVKLSGYPHPYYAMDYWGKGTLVTVSS VL: NFMLTQPPSLSGSLGQSARLTCTLGSGNSIGAHTISWYQQKAGSPPRYLLNYYSDSSNHQASGVPSRFSGSKDDSTNAGLLLISGLQPEDEADYYCAAGDGSGTVFGGGTKLTVL ... 0.0104

Here's the next entry for you.
For the binder Fab clone 2E9 (Fab, V domains shown, Llama-derived Fab from an immune library; the constant domains of the Fab are not) VH: EVQLVESGGGLVQPGGSLRLSCAASGFTFDDYTMSWVRQVPGKGLEWISGISGNGGRTDYVEPIEGRFTISRDNAKNTLYLQMNSLKSEDTAVYYCAKTSPQSLDYWGQGTQVTVSS VL: DIVMTQSPSSVTASVGEKVTINCKSSQSVVSGSNQKSYLNWYQQRPGQPPRLLIYYASTQESGIPDRFSGSGSTTDFTLTISSVQPEDAAVYYCQQAYSAPYNFGSGTRLEIK , what EC50 is on record? 0.0149
